- TARGET: MAP4K4 (human) (UniProt O95819)
- Sequence (O95819 whole entry, looked up): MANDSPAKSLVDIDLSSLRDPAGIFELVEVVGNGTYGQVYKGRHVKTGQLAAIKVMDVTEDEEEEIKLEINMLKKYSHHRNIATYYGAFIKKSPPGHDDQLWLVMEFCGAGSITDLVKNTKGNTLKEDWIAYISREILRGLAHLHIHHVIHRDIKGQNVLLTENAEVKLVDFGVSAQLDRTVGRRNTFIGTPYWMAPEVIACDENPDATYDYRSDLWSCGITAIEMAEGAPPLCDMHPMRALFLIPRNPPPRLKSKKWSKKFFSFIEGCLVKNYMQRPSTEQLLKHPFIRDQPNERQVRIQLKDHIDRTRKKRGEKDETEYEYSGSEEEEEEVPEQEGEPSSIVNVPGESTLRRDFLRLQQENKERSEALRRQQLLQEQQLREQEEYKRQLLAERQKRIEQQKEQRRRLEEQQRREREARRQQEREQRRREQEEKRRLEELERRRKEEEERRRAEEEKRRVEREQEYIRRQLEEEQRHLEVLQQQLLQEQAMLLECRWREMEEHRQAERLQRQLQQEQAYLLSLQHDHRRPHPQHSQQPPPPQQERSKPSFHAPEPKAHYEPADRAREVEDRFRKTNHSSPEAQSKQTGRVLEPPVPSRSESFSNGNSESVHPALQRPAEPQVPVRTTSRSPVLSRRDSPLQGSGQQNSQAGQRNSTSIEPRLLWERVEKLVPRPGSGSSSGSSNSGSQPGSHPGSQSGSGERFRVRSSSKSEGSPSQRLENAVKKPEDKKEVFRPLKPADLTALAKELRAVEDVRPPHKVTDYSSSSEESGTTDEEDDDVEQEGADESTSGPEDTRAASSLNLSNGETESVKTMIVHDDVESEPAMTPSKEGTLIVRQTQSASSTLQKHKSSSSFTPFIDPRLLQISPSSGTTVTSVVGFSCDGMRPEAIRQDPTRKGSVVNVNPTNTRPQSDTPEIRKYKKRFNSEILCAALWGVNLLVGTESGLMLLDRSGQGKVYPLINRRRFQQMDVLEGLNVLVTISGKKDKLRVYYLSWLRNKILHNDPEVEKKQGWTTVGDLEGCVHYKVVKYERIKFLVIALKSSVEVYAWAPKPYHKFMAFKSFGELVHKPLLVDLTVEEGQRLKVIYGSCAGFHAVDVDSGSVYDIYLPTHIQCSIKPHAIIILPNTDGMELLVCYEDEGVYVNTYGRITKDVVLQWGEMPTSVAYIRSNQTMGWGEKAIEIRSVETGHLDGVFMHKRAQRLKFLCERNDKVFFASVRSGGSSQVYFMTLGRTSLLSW
- PROCEDURE_DETAILS: radiometric filter-binding kinase assay, Kinase HotSpot
- RUN_CONDITIONS: compound 0.5 µM; ATP 10 µM

- MOLECULE: "O=C(NC(NC(=S)Nc1ccc(F)c([N+](=O)[O-])c1)C(Cl)(Cl)Cl)C(c1ccccc1)c1ccccc1 (stereo not drawn)"
  residual activity: "92.7%"
- MOLECULE: "CC(C)n1cnc2c(Nc3cccc(Cl)c3)nc(NCCO)nc21"
  residual activity: "75.5%"
- MOLECULE: "O=c1cc(N2CCNCC2)oc2c(-c3ccccc3)cccc12"
  residual activity: "92.7%"
- MOLECULE: "NC(=O)c1ccc(N(C(N)=O)c2c(F)cccc2F)nc1-c1ccc(F)cc1F"
  residual activity: "108%"
- MOLECULE: "Oc1ccc(-c2nc(-c3ccc(F)cc3)c(-c3ccncc3)[nH]2)cc1"
  residual activity: "86.5%"
- MOLECULE: "O=C1Cc2c([nH]c3ccc([N+](=O)[O-])cc23)-c2ccccc2N1"
  residual activity: "4.47%"
- MOLECULE: "CC(C)(C)c1nc2c3ccc(F)cc3c3c(=O)[nH]ccc3c2[nH]1"
  residual activity: "38.4%"
- MOLECULE: "O=C1Nc2ccccc2/C1=C\\c1c(Cl)[nH]c2ccccc12"
  residual activity: "75.7%"
- MOLECULE: "O=C(Nc1ccc(Cl)cc1)c1ccccc1NCc1ccncc1"
  residual activity: "88.7%"
- MOLECULE: "Nc1n[nH]c2nnc(-c3c(-c4ccccc4)nn4ccccc34)cc12"
  residual activity: "62%"
- MOLECULE: "Cc1cc2ncc(-c3ccccc3)nc2cc1C"
  residual activity: "85%"
- MOLECULE: "Nc1nc(Nc2ccc(S(N)(=O)=O)cc2)nn1C(=S)Nc1c(F)cccc1F"
  residual activity: "4.46%"
- MOLECULE: "COc1cc2ncnc(Nc3ccc(F)c(Cl)c3)c2cc1OCCCN1CCOCC1"
  residual activity: "97.8%"
- MOLECULE: "COc1ccc(-c2cnc3c(-c4ccsc4)cnn3c2)cc1"
  residual activity: "28.4%"
- MOLECULE: "CC(C)[C@H](CO)Nc1nc(Nc2cccc(Cl)c2)c2ncn(C(C)C)c2n1"
  residual activity: "84.9%"
- MOLECULE: "Cc1ccc(NC(=O)c2ccc(CN3CCN(C)CC3)cc2)cc1Nc1nc(-c2cccnc2)cs1"
  residual activity: "72.2%"
- MOLECULE: "Clc1ccc(Nc2nnc(Cc3ccncc3)c3ccccc23)cc1"
  residual activity: "107%"
- MOLECULE: "CCN1/C(=C/C(C)=O)Sc2ccc(OC)cc21"
  residual activity: "83.2%"
- MOLECULE: "COc1cc2nccc(Oc3ccc(NC(=S)NC(=O)c4ccccc4C)cc3)c2cc1OC"
  residual activity: "87.8%"
- MOLECULE: "Nc1nc(Nc2ccc(S(N)(=O)=O)cc2)nn1C(=O)c1c(F)cccc1F"
  residual activity: "83.8%"
- MOLECULE: "CSc1nc(-c2ccc(F)cc2)c(-c2ccnc(NC(C)c3ccccc3)c2)[nH]1 (stereo not drawn)"
  residual activity: "91.6%"
- MOLECULE: "O=c1cc(-c2cccc3c2Sc2ccccc2S3)oc(N2CCOCC2)c1"
  residual activity: "93.2%"
- MOLECULE: "CCCNC(=O)Nc1ccc(Oc2ncnc3cc(OC)c(OC)cc23)cc1Cl"
  residual activity: "86.4%"
